Tested on: cellules leucémiques L 1210
MEASUREMENT_DESCRIPTION: In vitro cytotoxicity: growth inhibition of L 1210 leukemia cells (Coulter count)
Assay type: cell-based, souris
TEST_PARAMETERS: Mus musculus, L1210, 48 h; L 1210 cells; 48 heures après traitement; read-out: CI50 après 48 h de culture
ATTRIBUTE_MEASURED: IC50
Write your answer as a measured quantity: the number, then the unit.

Given COC1=CC(=O)c2ncnc(NCCCN3CCC(C4CCN(CCCNc5ncnc6c5C(=O)C(OC)=CC6=O)CC4)CC3)c2C1=O , state its recorded IC50. 1.3 µM
